Documented self-cleavage kobs at 2500 uM GlcN6P across a set of variants
B1: glmS ribozyme (parent)
chain: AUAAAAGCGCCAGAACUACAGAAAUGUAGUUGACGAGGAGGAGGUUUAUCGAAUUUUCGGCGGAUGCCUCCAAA

Variants of: B1
Test: self-cleavage kobs at 2500 uM GlcN6P; higher = faster cleavage; RNA array
Conditions: with glucosamine-6-phosphate
Variants at the floor of the assay were thinned out.
Note: unit s⁻¹ is implicit; provide only the numeric part.

G29C G40A U56G ... 4.42e-05

Prompt: Identify measured self-cleavage kobs at 2500 uM GlcN6P associated with A1C U30G
Response: 0.00723

Prompt: Identify measured self-cleavage kobs at 2500 uM GlcN6P associated with U31A U55A
Response: 0.00953
